Cited source: paper PMC10459693

- Protocol Text: Biodistribution in SCID mice bearing AsPC-1 xenografts
- Format: in vivo
- Assay Setup: male, mouse, pancreas, iv, total radioactivity, 24 h pi, Entresto+Lis, read-out: uptake in Pancreas
Peptide text beside a SMILES is read from it. * marks the point of attachment. Palmitoyl = CCCCCCCCCCCCCCCC(=O)*; X1 = NCCNCC(CNCCN)C(=O)*
Quantity Measured: tissue uptake at 24 h (%ID/g)
Numbers only, in %ID/g.

Find the recorded tissue uptake at 24 h belonging to CCCCCCCCCCCCCCCC(=O)NCCCC[C@H](NC(=O)C(CNCCN)CNCCN)C(=O)N[C@@H](CCCNC(=N)N)C(=O)N[C@@H](CCCNC(=N)N)C(=O)N1CCC[C@H]1C(=O)N[C@@H](Cc1ccc(O)cc1)C(=O)N[C@H](C(=O)N[C@@H](CC(C)C)C(=O)O)[C@@H](C)CC [[^99mTc]Tc-DT9, metal not drawn] (X1-K(Palmitoyl)RRPYIL-OH) and report it. 0.8
